Give IC50 for every item shown.
biological target: AR (Homo sapiens, UniProt P10275); assay: cell-based; assay type: cell-based
Sequence (P10275 whole entry, looked up): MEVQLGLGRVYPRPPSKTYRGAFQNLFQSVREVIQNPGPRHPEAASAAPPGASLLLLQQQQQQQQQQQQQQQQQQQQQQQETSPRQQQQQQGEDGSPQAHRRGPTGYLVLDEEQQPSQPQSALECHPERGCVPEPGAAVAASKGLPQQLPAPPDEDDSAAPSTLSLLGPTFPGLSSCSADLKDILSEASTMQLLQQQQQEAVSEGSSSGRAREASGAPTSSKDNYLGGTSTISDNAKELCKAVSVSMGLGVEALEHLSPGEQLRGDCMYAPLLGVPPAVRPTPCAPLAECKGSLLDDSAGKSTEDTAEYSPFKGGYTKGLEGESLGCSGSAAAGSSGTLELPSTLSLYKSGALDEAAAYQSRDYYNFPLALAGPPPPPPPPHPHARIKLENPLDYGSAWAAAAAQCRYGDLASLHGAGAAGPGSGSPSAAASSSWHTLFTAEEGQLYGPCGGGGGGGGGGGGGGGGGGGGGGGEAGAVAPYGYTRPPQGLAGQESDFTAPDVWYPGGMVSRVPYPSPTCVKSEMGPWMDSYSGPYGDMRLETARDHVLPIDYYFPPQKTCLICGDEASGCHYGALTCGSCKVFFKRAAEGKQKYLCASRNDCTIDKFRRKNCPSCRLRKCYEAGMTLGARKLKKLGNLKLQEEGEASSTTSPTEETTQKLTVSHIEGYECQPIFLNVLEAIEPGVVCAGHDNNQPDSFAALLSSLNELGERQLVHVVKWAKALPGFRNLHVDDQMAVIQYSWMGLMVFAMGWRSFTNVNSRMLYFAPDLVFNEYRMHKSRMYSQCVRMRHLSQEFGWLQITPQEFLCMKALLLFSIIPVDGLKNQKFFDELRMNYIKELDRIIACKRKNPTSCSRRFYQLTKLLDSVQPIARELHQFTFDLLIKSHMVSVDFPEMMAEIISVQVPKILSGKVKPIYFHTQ
Numbers only, in nM.

Reference set, count: 10
{"compound": "CC1(C)C(=O)N(c2ccc(C#N)c(C(F)(F)F)c2)C(=S)N1c1ccccn1", "IC50 (nM)": 723}
{"compound": "N#Cc1ccc(N2C(=O)C3(CCCC3)N(c3ccc([N+](=O)[O-])cc3)C2=S)cc1C(F)(F)F", "IC50 (nM)": 498}
{"compound": "COC(=O)CCCc1ccc(N2C(=S)N(c3ccc(C#N)c(C(F)(F)F)c3)C(=O)C23CCC3)cc1", "IC50 (nM)": 432}
{"compound": "CC1(C)C(=O)N(c2ccc(C#N)c(C(F)(F)F)c2)C(=S)N1c1ccc(C(F)(F)F)cc1", "IC50 (nM)": 143}
{"compound": "N#Cc1ccc(N2C(=S)N(c3ccc(C#N)c(C(F)(F)F)c3)C(=O)C23CCCC3)cc1", "IC50 (nM)": 469}
{"compound": "Cc1ccc(N2C(=S)N(c3ccc(C#N)c(C(F)(F)F)c3)C(=O)C23CCCCC3)cc1", "IC50 (nM)": 194}
{"compound": "Cc1ccc(N2C(=S)N(c3ccc(C#N)c(C(F)(F)F)c3)C(=O)C23CCN(C)CC3)cc1", "IC50 (nM)": 638}
{"compound": "CNC(=O)CCc1ccc(N2C(=S)N(c3ccc(C#N)c(C(F)(F)F)c3)C(=O)C23CCC3)cc1", "IC50 (nM)": 234}
{"compound": "N#Cc1ccc(N2C(=O)C3(CCC3)N(c3ccc(-c4ccccc4)cc3)C2=S)cc1C(F)(F)F", "IC50 (nM)": 283}
{"compound": "N#Cc1ccc(N2C(=O)C3(CCC3)N(c3ccc(CCC(N)=O)cc3)C2=S)cc1C(F)(F)F", "IC50 (nM)": 224}

Would you be so kind as to report IC50 for each listed record?
1. Cc1ccc(N2C(=S)N(c3ccc(C#N)c(C(F)(F)F)c3)C(=O)C23CCCC3)cc1
2. Cc1ccc(N2C(=S)N(c3ccc(C#N)c(C(F)(F)F)c3)C(=O)C2(CCl)CCl)cc1
3. N#Cc1ccc(N2C(=O)C3(CCC3)N(c3ccc(O)cc3)C2=S)cc1C(F)(F)F

Marked response:
147
521
162

Ref: patent US9126941B2
